Target: UniProt:Q12866
Sequence (Q12866 21-999): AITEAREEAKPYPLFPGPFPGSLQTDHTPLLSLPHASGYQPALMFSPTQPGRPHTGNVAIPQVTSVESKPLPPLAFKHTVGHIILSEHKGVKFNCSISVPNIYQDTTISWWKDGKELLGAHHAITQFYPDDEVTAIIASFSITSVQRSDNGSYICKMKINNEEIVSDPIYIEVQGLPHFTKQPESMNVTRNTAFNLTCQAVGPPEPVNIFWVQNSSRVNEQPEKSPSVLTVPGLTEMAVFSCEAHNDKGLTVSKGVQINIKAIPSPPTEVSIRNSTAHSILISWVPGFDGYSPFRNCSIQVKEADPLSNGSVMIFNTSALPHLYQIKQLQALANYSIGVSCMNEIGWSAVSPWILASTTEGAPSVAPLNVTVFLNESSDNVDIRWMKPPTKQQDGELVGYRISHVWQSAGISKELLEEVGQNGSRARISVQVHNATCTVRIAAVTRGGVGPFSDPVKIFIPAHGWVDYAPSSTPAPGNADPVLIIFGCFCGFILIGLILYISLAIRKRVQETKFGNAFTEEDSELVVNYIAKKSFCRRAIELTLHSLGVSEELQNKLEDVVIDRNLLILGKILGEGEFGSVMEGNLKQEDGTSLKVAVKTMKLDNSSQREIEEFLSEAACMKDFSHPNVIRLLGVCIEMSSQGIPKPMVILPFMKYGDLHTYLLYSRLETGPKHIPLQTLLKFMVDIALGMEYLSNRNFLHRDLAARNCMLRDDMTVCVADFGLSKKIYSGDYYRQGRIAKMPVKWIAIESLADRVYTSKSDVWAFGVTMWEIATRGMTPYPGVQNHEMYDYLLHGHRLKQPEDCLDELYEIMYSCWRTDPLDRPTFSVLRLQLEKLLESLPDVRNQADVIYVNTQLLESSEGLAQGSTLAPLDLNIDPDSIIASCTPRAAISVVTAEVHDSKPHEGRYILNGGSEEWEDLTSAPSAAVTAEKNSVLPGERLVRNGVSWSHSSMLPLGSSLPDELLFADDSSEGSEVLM
Experiment: Kinase panel (mobility shift)
Type: biochemical
Measured inhibition at 5 µM values are reported for all entries that follow.
RECORDED_ENDPOINT: inhibition at 5 µM

>  <COMPOUND>
CNC(=O)c1cc(Oc2ccc(NC(=O)c3nc(NC)oc3-c3ccc(F)cc3)cc2F)ccn1

>  <RECORDED_ENDPOINT>
inhibition at 5 µM

>  <OBSERVED_MEASUREMENT>
50 to 79%

$$$$
>  <COMPOUND>
CNC(=O)c1cc(Oc2ccc(NC(=O)c3nc(SC)oc3-c3ccc(F)c(F)c3)cc2)ccn1

>  <RECORDED_ENDPOINT>
inhibition at 5 µM

>  <OBSERVED_MEASUREMENT>
50 to 79%

$$$$
>  <COMPOUND>
CNC(=O)c1cc(Oc2ccc(NC(=O)c3nc(SC)oc3-c3ccc(F)s3)cc2F)ccn1

>  <RECORDED_ENDPOINT>
inhibition at 5 µM

>  <OBSERVED_MEASUREMENT>
< 50%

$$$$
>  <COMPOUND>
CNC(=O)c1cc(Oc2ccc(NC(=O)c3nc(SC)oc3-c3ccc(F)cc3F)cc2F)ccn1

>  <RECORDED_ENDPOINT>
inhibition at 5 µM

>  <OBSERVED_MEASUREMENT>
80 to 89%

$$$$
>  <COMPOUND>
CNC(=O)c1cc(Oc2ccc(NC(=O)c3nc(NC)sc3-c3ccc(F)cc3F)cc2F)ccn1

>  <RECORDED_ENDPOINT>
inhibition at 5 µM

>  <OBSERVED_MEASUREMENT>
< 50%

$$$$
>  <COMPOUND>
COc1nc(C(=O)Nc2ccc(Oc3ccnc(C(=O)NC4COC4)c3)c(F)c2)c(-c2ccc(F)cc2)o1

>  <RECORDED_ENDPOINT>
inhibition at 5 µM

>  <OBSERVED_MEASUREMENT>
< 50%

$$$$
>  <COMPOUND>
CNC(=O)c1cc(Oc2ccc(NC(=O)c3nc(OC4CC4)oc3-c3ccc(F)cc3)cc2F)ccn1

>  <RECORDED_ENDPOINT>
inhibition at 5 µM

>  <OBSERVED_MEASUREMENT>
80 to 89%

$$$$
>  <COMPOUND>
CSc1nc(C(=O)Nc2ccc(Oc3ccnc(C(=O)NC4CNC4)c3)c(F)c2)c(-c2ccc(F)s2)o1

>  <RECORDED_ENDPOINT>
inhibition at 5 µM

>  <OBSERVED_MEASUREMENT>
< 50%

$$$$
>  <COMPOUND>
CSc1nc(C(=O)Nc2ccc(Oc3ccnc(-c4cnn(C)c4)c3)c(F)c2)c(-c2ccc(F)cc2)o1

>  <RECORDED_ENDPOINT>
inhibition at 5 µM

>  <OBSERVED_MEASUREMENT>
90 to 94%

$$$$

###

Measured inhibition at 5 µM values are reported for all entries that follow.
Biological target: SRC (Homo sapiens)
Sequence (P12931 whole entry, species assumed): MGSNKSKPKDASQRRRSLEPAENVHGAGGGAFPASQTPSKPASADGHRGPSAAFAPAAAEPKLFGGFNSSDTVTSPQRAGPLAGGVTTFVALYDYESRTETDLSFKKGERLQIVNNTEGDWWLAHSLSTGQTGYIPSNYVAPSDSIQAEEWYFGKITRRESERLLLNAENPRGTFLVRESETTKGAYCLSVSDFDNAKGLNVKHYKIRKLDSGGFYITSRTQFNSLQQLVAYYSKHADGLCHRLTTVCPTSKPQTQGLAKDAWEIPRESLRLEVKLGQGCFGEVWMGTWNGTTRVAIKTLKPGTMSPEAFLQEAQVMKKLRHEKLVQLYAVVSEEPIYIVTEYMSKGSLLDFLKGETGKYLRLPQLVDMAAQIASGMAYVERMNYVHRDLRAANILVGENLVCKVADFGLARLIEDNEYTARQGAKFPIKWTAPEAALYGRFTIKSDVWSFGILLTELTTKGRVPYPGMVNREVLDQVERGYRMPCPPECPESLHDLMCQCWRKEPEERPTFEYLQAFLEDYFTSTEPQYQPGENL
Test: Kinase panel (mobility shift)
Assay type: biochemical
RECORDED_ENDPOINT: inhibition at 5 µM

>  <COMPOUND>
[2H]C([2H])([2H])NC(=O)c1cc(Oc2ccc(NC(=O)c3nc(SC)oc3-c3ccc(F)s3)cc2F)ccn1

>  <OBSERVED_MEASUREMENT>
< 50%

$$$$
>  <COMPOUND>
CNC(=O)c1cc(Oc2ccc(NC(=O)c3nc(NC)oc3-c3ccc(F)s3)cc2F)ccn1

>  <OBSERVED_MEASUREMENT>
< 50%

$$$$
>  <COMPOUND>
CNC(=O)c1cc(Oc2ccc(NC(=O)c3nc(NC)sc3-c3ccc(F)cc3F)cc2F)ccn1

>  <OBSERVED_MEASUREMENT>
< 50%

$$$$
>  <COMPOUND>
CNC(=O)c1cc(Oc2ccc(NC(=O)c3nc(SC)oc3-c3ccc(OC)cc3)cc2)ccn1

>  <OBSERVED_MEASUREMENT>
< 50%

$$$$
>  <COMPOUND>
CSc1nc(C(=O)Nc2ccc(Oc3ccnc(N)c3Cl)c(F)c2)c(-c2ccc(F)cc2)o1

>  <OBSERVED_MEASUREMENT>
< 50%

$$$$
>  <COMPOUND>
COc1nc(C(=O)Nc2ccc(Oc3ccnc(C(=O)NC4COC4)c3)c(F)c2)c(-c2ccc(F)cc2)o1

>  <OBSERVED_MEASUREMENT>
< 50%

$$$$
>  <COMPOUND>
CNC(=O)c1cc(Oc2ccc(NC(=O)c3nc(OC4CC4)oc3-c3ccc(F)cc3)cc2F)ccn1

>  <OBSERVED_MEASUREMENT>
50 to 79%

$$$$
>  <COMPOUND>
[2H]C([2H])([2H])NC(=O)c1cc(Oc2ccc(NC(=O)c3nc(SC)oc3-c3ccc(F)c(F)c3)cc2F)ccn1

>  <OBSERVED_MEASUREMENT>
< 50%

$$$$
>  <COMPOUND>
CSc1nc(C(=O)Nc2ccc(Oc3ccnc(C(=O)NCC(F)(F)F)c3)c(F)c2)c(-c2ccc(F)cc2)o1

>  <OBSERVED_MEASUREMENT>
< 50%

$$$$
>  <COMPOUND>
CNC(=O)c1cc(Oc2ccc(NC(=O)c3nc(OCC(F)(F)F)oc3-c3ccc(F)cc3)cc2F)ccn1

>  <OBSERVED_MEASUREMENT>
50 to 79%

$$$$
>  <COMPOUND>
CNC(=O)c1cc(Oc2ccc(NC(=O)c3nc(SC)oc3-c3ccc(F)cc3Cl)cc2)ccn1

>  <OBSERVED_MEASUREMENT>
80 to 89%

$$$$
>  <COMPOUND>
CSc1nc(C(=O)Nc2ccc(Oc3ccnc(C(=O)NC4CNC4)c3)c(F)c2)c(-c2ccc(F)s2)o1

>  <OBSERVED_MEASUREMENT>
< 50%

$$$$
>  <COMPOUND>
CNC(=O)c1ccc(Oc2ccc(NC(=O)c3nc(Cl)oc3-c3ccc(F)cc3)c(F)c2)cn1

>  <OBSERVED_MEASUREMENT>
< 50%

$$$$
>  <COMPOUND>
CSc1nc(C(=O)Nc2ccc(Oc3cc4cnn(C)c4cc3Br)c(F)c2)c(-c2ccc(F)cc2)o1

>  <OBSERVED_MEASUREMENT>
< 50%

$$$$
>  <COMPOUND>
CSc1nc(C(=O)Nc2ccc(Oc3ccnc(C(=O)NC4COC4)c3)c(F)c2)c(-c2ccc(F)c(F)c2)o1

>  <OBSERVED_MEASUREMENT>
< 50%

$$$$
>  <COMPOUND>
CSc1nc(C(=O)Nc2ccc(Oc3ccnc(C(=O)NC4COC4)c3)c(F)c2)c(-c2ccc(F)s2)o1

>  <OBSERVED_MEASUREMENT>
< 50%

$$$$
>  <COMPOUND>
CNC(=O)c1cc(Oc2ccc(NC(=O)c3nc(SC)oc3-c3ccc(F)cc3F)cc2)ccn1

>  <OBSERVED_MEASUREMENT>
80 to 89%

$$$$
>  <COMPOUND>
CSc1nc(C(=O)Nc2ccc(Oc3ccnc(C(=O)NC4COC4)c3)c(F)c2)c(-c2ccc(F)cc2)o1

>  <OBSERVED_MEASUREMENT>
< 50%

$$$$
>  <COMPOUND>
CSc1nc(C(=O)Nc2ccc(Oc3ccnc(C(=O)NCCN(C)C)c3)c(F)c2)c(-c2ccc(F)cc2)o1

>  <OBSERVED_MEASUREMENT>
< 50%

$$$$
